# assay_info: label from the status in PepcDB records;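 note: failed if final PepcDB status was selected cloned or expressed and not failed if soluble or beyond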
endpoint: protein production

Use these answered entries as a reference point.
chain_sequence | value_reported
MTIEKKKNKIIFTRTFSAPINKVFDAYTKRELFEQWFHPQDASVTVYDFNATKGGNAFYAIQAPQMTSYTIAEYLQVDAPYYIEYLDYFATSKGEKDTSMPGMHITLNFEEVKGKTTVTSTSTFPTESAAQQAIDMGVETGMNSTLNQLEKLLNQKLEHHHHHH | not failed
MAKIFVVGGSGRVASELIKNLINDGNQVFASSRHPEKIIKLDNVVPVKLDLHSDVSAWSEVFKGMDVIYFVAGSRGKDLLQTDAMGAVKTMQAAENVGVKRYIMLSSLYALQPEKWSQYESLAALTDYNIAKFFADNYLVNDTKLDYTVVQPASLTEETGTGRVSFNEIISNTNPIPDVAKVLAEVIKHNNTIGKVIMMCSGDNPIETALKDI | failed
MMEHHKVHTTIQALQAKRKKLLTELAELEAEIKVSSERKSSFNISLSPSLLAEIEEIEYEEKTSKERRINHSVLLSPSFMAKVDEYMKEKGFSNRSLLFEKALEFYMLKHP | failed
MKMDYKEQSHIIPTYKRFDIVLEKGQGVYLFDDKAKKYLDFSSGIGVCALGYNHAKFNAKIKAQVDKLLHTSNLYYNENIAAAAKNLAKASALERVFFTNSGTESIEGAMKTARKYAFNKGVKGGQFIAFKHSFHGRTLGALSLTANEKYQKPFKPLISGVKFAKYNDISSVEKLVNEKTCAIILESVQGEGGINPANKDFYKALRKLCDEKDILLIADEIQCGMGRSGKFFAYEHAQILPDIMTSAKALGCGLSVGAFVINQKVASNSLEAGDHGSTYGGNPLVCAGVNAVFEIFKEEKILENVNKLTPYLEQSLDELINEFDFCKKRKGLGFMQGLSLDKSVKVAKVIQKCQENALLLISCGENDLRFLPPLILQKEHIDEMSEKLRKALKSF | not failed
MDVSFEFEHYQVRLIKSSDAVTIANYFMRNRHHLAPWEPKRSHAFFTPEGWKQRLLQLVELHKHNLAFYFVVVDKNEHKIIGTVSYSNITRFPFHAGHVGYSLDSEYQGKGIMRRAVNVTIDWMFKAQNLHRIMAAYIPRNEKSAKVLAALGFVKEGEAKKYLYINGAWEDHILTSKINDDWKP | not failed

Switching to the query record.
Exam item: Which protein production reading was recorded for the sequence `MKRKMENMKYTMSYIAKNFRVALMLSLMMLLCSCSSEDKLELHKGATLPIMQGIADNVPYIQSVEKELTYDLYDGVRITDVIFTYCAKPTRMIIAEVDLNKNVTIVTSTPDNKPEVGKILQQVTVQAEKAEAAGRKVILGTNGDFYSKKNDLWIPGGLFYKDGVAIKTEIGWEADHVFYMLKDGTAHITSVPEFKLVEREVVHAIGGWQRMVQDGEVVKNFTVNDNAMQFHPRTFVGVSADNRKVYLFVVDGRQPEYSNGMRLEDMMLLCQGAGCYQAFNMDGGGSTTMVRRVEKGSSVSFEVMNQPSDNPARSVINGLQVIEKTN` ?
Marked response: failed

====

# assay_info: label from the status in PepcDB records

chain_sequence | protein production
MGSSHHHHHHSSGLVPRGSHMFKLTPAAAEQVLKAAKQGGTEGMCLRLAAGRNPDGSIDYRMGFDDLTEDDIRLTSEGVEIVIAPDYVSLLDQTTLDYVELEPGQFHFIFLNPRDPTYRPPSGG | not failed
MKKTFNLVATAAAGIEAVVGKELRNLGLDCQVENGRVLFKGNIETIAKSNLWLRSADRIKIVVGEFPARTFEELFQGVYALDWENYLPLGCQFPVAKAKSVKSKLHNEPSIQGITKKAIVKKLQHYFHRPDSVPLPENGPEFKIEISLLKDQARVMIDTTGPSLFKRGYRTEKGGAPIKENMAAAIILLSNWFPDKPFVDPTCGSGTFCIEAAMIGMNIAPGFNRDFAFEEWPWVDEALVTRVRNEADEQADYDIQLDISGFDFDGRMVEIARKNAREVGLEDVVKLKQMRLQDFKTNKINGVLISNPPYGERLLDDKAVDILYNEMGETFAPLKTWSQFILTNDTDFEQKFGRKADKKRKLYNGSLKVDLYQFYGQRVKRVLR | not failed
KKSKYMTPMQQKLNEVYEAVKNYTDKRGRRLSAIFLRLPSRSELPDYYLTIKKPMDMEKIRSHMMANKYQDIDSMVEDFVMMFNNACTYNEPESLIYKDALVLHKVLLETRRD | not failed

====

# assay_info: label from the status in PepcDB records
endpoint: protein production

chain_sequence | value_reported
MNTLNRYIGWEVIKGAAFAALVLLALLNFFTFADELRDLGEGNYGLGSIFLYLTLTSPHSLYELIPSGALIGGLVVLGNMANNHELVAMQAAGVSRGRIVWAVLRAGIVISLISVVISEYVIPPAERAAQMLKATATRQQVASQTKYGVWIRDGNVYVNVREIENQERLGDIHIFEISPDGRPALAMHAARASFDRGIWKLEDIGLTRFDPAGNAAIAEHKEQEDWSSVLSPDMLDVFIVRPENLSAQDLAKYMAYQTENAQKSLAVEQAFWGRMVNPLITLAMLLLAIPFVFNARRDVSSGQRIVIGVTIGLGFYLTNRMVSHLGLVYEVNAPLTMVTPPLVVLFAALAAFRRRP | failed
MALKTDIRGMIWRYPDYFIVGREQCREFARAVKCDHPAFFSEEAAADLGYDALVAPLTFVTILAKYVQLDFFRHVDVGMETMQIVQVDQRFVFHKPVLAGDKLWARMDIHSVDERFGADIVVTRNLCTNDDGELVMEAYTTLMGQQGDGSARLKWDKESGQVIRTALEHHHHHH | failed

====

# assay_info: label from the status in PepcDB records

chain_sequence | protein production
MTFALGQRWISDTESDLGLGTVVAMDARTVTLMFAASEENRVYARNDAPVTRVTFNVGDVIDCQEGWSLKVEEVLEDEGLYTYFGTREDTQETAVVLREIFLSNQIRFNKPQDKLYAGQIDRMDNFVLRY | failed
MMPLKDGDFVLINYTVKVVEDGSERVIDTTLEEVAKKSGIYDPKRVYKEFPVIVGKTSLLGPLEKVLKELDVGERREVEVPPEEAFGEYKKELVVRVPVKRLRRMNIPVRVGEEVEAGGRRGKIIRVTERFAFIDFNHPLAGKKLKIEVEVVGKVDSVEDKARILAARALGLDPDKIHAEVREGGKEITLKLPPEVLGLSDLDALLAKAVSDVREYLSPRKVDVVISIEFPEEAREEAEASDTGEGGEAEGESEQAAEPGGGEERQEG | failed

====

# assay_info: label from the status in PepcDB records
endpoint: protein production

chain_sequence | value_reported
MMIQGHLFHQDRKRTFRIVEPFGSTTDALIYFHGSQQSGSVGRSFTNRTFDPLPFMVVYPDGVDQHWNDARLGLDENTRHLGIDDVGFFVKLATHLGNTYGIKRIFIVGYSNGGQMVLRLMHEVPKMLSGAATIASNMPVAENTLPQVKTFKTHPVPYLAMAGTADTFSPYEGGDAGIGREHRRGVGMSAFDSAAYIAARNGLTEHRHDVIDDVVSIDTWDGENPVEFWTLNGIGHLVPSGKTYPEFLGPSTTSVIAAEEIGKFFDGVRRR | failed
HSEPSHQSKAVVELPHKQGMARLAAGLLHPDMTIYLDAGTSTLEIVPHIIALSGMTVVTNDFGVVNALADAAHVDVIHTGGLLDHPNRSSVGGLAAATLRQLATDVAFMSTSSWDLQRGTTTPSALKVEVKQAAMQSASQTVLVATSSKY | failed
YRYDEQLNLCLERLSSGKDKNKSVLQNKYVRCSVRAEVRHLRRVLCHRLMLNPQHVQLLFDNEVLPDHMTMKQIWLSRWFGKPSPLLLQYS | failed

====

# assay_info: label from the status in PepcDB records
endpoint: protein production

chain_sequence | endpoint | value_reported
ADKFTFIGFLSKKDSEQKKQLEELMPLDSTLIFYESPFRVGKTLENVRAIFGEKTKVVLARELTKKFESYYRGDITQALNFIKSNRPRGEFVLLIKKIHEA | protein production | failed
MSLHPHLNANLEGGVLTLAINRPEAKNALYGELYLWIAKALDEADQNKDVRVVVLRGAEHDFTAGNDMKDFMGFVQNPNAGPAGQVPPFVLLKSAARLSKPLIIAVKGVAIGIGVTILLQADLVFADNTALFQIPFVSLGLSPEGGASQLLVKQAGYHKAAELLFTAKKFNAETALQAGLVNEIVEDAYATAQATAQHLTALPLASLKQTKALMKHDLDQIIECIDHEAEIFMQRVQSPEMLEAVQAFMQKRQPDFSQEGHHHHHH | protein production | not failed
MVTNKLITLLPDLATFIVVVNEGSFTAAAKKLGVTPSALSKLITRLENALSVKLFERTTRSLLITESGKKIYQQSVIMVEAAQQAVDISSSEHTVPSGSLTVAAPKAFLTIVLQPLITPFLTKYPKIQLKLRASDGDIDMIAQGIDVVFRLTDKPTEGLVMKEIGKVNLSLCASPTYLEERGIPHLPQELANHDCLFLGETTTDHIWEFVKGTESHVIAVSGRYAVNHSQMRLNGVKDGFGIGIFPDFVIKEALANNEVISVLSDWQIKGNYHGVIAMQYAQNKYIPSRLKVFTEFVKENLMKSKVNDERT | protein production | not failed
MIMNTKERSLLGSWIIWSVAYYMYYPFISIYLSRFVEESKLSLFFVVFQAVSLPLPLIGARLSKRNRILPIIIGMLVGGIGMIMLPFSRNILEATIFMSLNYFISLSLPSYYSLMSEVGEGTITRIWSLSILPSIIMPSLGGLLAQYFGLRLLFMIGGIVLATSFLPMVNSSYNSSSQSLLNFNITIRSFLPAILILPIAMEFPYIYLVVYNYFHLTKEYVGIIATSAEILGMLLTYLASKLIFRKKYLLSLSLFLFSLTSLYFLSPTIAIFFGCWEVIVPLTLEYFSSRKTVYDFALITTMQGLGWVLGYLIDYFIPNISLLLLSSSLIAFLLALMIVFTKD | protein production | failed
MQVKTEEKSVNNKKLIPFWVIERALEGDIQAINKILKHYEGYIAKLSVRKMYDEYGCVHYCVDETLRRRLETKLIKTIIGFKIVRLEHHHHHH | protein production | not failed
MPSMSPIDKSWSTCPYGFLDGTHQELRRIFHLWRCKKYRSQFTEEKKATYEEKLAASELFKDKKALYPSSVSQPFKGDYVEITKNPKYQKLNSLVEDKVLLADVVSKINRANGKGTPRIFLLTKKCLVLADQKTGQVKASVPLPDLSSVFVSTQNDGFFALKLREGATSAAKGDYLLSSDRLIEIITKLYCTGAASAERNQIKIDISDEFLVQFKQDKVCVKFIQGTPKNSNSVSCKRKNNRLLEVSVPSP | protein production | failed

Switching to the query record.
Exam item: Which protein production reading was recorded for the sequence `ANIYTFDFDEIESQEDFYRDFSQTFGLAKDKVRDLDSLWDVLMNDVLPLPLEIEFVHLGEKTRRRFGALILLFDEAEEELEGHLRFNVRH` ?
Marked response: not failed
